Molecular target: human C3b (Homo sapiens)
Construct: purchased Complement Technology, Tyler, TX, USA
Sequence (P01024 23-667 limits assumed): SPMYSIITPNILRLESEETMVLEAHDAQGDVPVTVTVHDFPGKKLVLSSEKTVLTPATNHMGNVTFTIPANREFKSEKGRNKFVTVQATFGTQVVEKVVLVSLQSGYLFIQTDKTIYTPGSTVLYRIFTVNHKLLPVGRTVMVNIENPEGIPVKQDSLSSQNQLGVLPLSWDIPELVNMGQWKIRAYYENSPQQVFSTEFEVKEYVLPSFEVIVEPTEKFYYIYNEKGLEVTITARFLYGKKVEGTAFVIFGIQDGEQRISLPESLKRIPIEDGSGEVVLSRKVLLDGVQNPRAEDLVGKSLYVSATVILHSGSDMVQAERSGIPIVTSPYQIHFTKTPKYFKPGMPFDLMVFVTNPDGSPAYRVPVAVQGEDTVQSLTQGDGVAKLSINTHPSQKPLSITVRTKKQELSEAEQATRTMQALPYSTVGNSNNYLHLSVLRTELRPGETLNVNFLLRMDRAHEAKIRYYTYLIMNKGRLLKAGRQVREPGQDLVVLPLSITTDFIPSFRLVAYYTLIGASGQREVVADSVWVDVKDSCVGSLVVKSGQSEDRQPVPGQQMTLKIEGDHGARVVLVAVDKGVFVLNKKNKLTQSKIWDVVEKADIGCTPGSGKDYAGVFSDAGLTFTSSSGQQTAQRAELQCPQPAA
Sequence (P01024 749-1663 partner limits assumed): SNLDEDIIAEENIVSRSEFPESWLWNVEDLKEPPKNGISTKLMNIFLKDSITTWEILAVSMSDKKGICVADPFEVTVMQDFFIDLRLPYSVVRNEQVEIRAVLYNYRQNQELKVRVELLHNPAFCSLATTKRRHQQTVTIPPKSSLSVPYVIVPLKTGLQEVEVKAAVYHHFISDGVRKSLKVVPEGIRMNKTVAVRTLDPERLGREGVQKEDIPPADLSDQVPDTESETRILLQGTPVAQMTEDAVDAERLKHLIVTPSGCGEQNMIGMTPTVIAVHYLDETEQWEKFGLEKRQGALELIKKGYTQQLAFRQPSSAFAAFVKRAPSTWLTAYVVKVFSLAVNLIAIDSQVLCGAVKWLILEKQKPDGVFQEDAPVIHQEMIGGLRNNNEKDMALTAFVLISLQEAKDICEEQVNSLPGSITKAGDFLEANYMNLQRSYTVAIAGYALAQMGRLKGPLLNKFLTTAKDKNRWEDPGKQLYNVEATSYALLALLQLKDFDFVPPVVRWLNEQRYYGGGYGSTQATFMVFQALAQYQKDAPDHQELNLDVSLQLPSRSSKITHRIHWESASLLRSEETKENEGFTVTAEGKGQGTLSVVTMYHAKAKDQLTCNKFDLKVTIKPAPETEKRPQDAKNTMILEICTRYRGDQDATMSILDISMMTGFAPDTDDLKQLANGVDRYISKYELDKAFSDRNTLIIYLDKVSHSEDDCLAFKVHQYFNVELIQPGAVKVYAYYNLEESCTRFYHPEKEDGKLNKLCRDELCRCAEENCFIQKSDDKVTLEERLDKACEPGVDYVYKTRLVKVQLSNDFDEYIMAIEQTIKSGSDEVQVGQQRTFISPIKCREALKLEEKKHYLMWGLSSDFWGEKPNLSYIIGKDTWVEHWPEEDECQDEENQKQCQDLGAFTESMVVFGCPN
Test: SPR kinetic binding to immobilized human C3b
Settings: SPR screening at 2 and 1 μM; series up to 16 μM; read-out: affinity hC3b (class symbol N.B./W.B.)
Experimental: Experiments were conducted at 25 °C in HBST buffer (10 mM HEPES, 150 mM NaCl, and 0.05% Tween-20, pH 7.4; XanTec bioanalytics). Human C3b (Complement Technology, Tyler, TX, USA) was immobilized via amine-reactive coupling. […] Data were fitted to a Langmuir 1:1 binding model to calculate association (k a) and dissociation (k d) rate constants, and the equilibration constant K D is calculated based on the equation: K D = k d/k a. […]
pKd: −log10 of the molar value. Where a SMILES comes first, the peptide text is derived from it. Bridges are numbered along the chain shown (N, C = ends). [ ]: non-standard residue; d: D form.
metric.name: pKd

input: Name the recorded pKd of CC[C@H](C)[C@H](NC(C)=O)C(=O)N[C@H]1CSSC[C@@H](C(=O)N[C@H](C(N)=O)[C@@H](C)O)NC(=O)[C@H](CCCNC(=N)N)NC(=O)[C@H](Cc2c[nH]cn2)NC(=O)[C@H](C)NC(=O)[C@@H](C)NC(=O)[C@H](Cc2c[nH]c3ccccc23)NC(=O)[C@H](CC(=O)O)NC(=O)[C@H](CCC(N)=O)NC(=O)[C@H](Cc2c[nH]c3ccccc23)NC(=O)[C@H](C(C)C)NC1=O [Cp01-Gly8dAla] (Ac-ICVWQDW[dA]AHRCT-NH2; disulfide 2-12) , assay system human C3b (Homo sapiens).
output: < 4.80
